- TEST_METHOD_NOTES: Protein binding assay (HT dialysis), rat brain homogenate
- Type: in vitro ADME
- CONDITION_INFO: pH 7.4, Mean ± SEM, n = 3, read-out: Fu Brain
ENDPOINT_LABEL: fraction unbound at 6 h, 1 μM

P: COc1cccc(Cc2cc3c(nc2C)CN([C@H]2CCCC[C@@H]2O)C3=O)c1 [Example 38]
Q: COc1ccc(Cc2cc3c(nc2C)CN([C@H]2CCCC[C@@H]2O)C3=O)cc1 [Example 6]
R: COc1ccc(Cc2cc3c(cc2C)CN([C@H]2CCCC[C@@H]2O)C3=O)cc1 [Comparative compound, reference compound]
## Task Order the items by recorded fraction unbound at 6 h, 1 μM; the first position goes to the largest value. Answer format: the labels, ordered as requested.
## Result Q, P, R
(Q: 0.123, P: 0.084, R: 0.0022)

---

- TESTED_TARGET: human Muscarinic M1 receptor (Homo sapiens)
- Sequence (P11229 whole entry): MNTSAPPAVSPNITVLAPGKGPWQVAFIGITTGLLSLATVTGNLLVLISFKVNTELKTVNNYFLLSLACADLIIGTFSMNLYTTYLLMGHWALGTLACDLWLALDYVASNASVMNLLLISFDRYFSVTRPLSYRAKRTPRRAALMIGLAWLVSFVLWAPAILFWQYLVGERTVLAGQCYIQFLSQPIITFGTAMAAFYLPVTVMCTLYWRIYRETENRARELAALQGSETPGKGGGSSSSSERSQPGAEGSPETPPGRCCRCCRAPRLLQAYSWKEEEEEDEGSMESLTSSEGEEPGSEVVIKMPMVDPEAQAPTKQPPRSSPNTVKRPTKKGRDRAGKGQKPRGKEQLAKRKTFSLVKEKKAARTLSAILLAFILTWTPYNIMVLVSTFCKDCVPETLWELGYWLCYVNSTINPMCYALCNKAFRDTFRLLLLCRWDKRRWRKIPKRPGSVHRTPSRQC
- TEST_METHOD_NOTES: Allosteric potency EC50 for muscarinic M1 receptor, CHO pCRE-Luc reporter cell assay
- CONDITION_INFO: in presence of EC20 of acetylcholine; CHO cells, luciferase reporter, 4 h
pEC50: −log10 of the molar value.
ENDPOINT_LABEL: pEC50

The cases that follow already have their pEC50 on record.
Cc1nc2c(cc1Cc1ccc(-c3cnn(C)c3)nc1)C(=O)N([C@H]1CCCC[C@@H]1O)C2 ... 6.54
COc1ccc(Cc2cc3c(nc2C)CN(C2COCCC2O)C3=O)cc1 (centres unmarked) ... 6.17

1: Cc1nc2c(cc1Cc1ccc(-c3cscn3)cc1)C(=O)N([C@H]1CCCC[C@@H]1O)C2
2: Cc1nc2c(cc1Cc1cccc(Cl)c1)C(=O)N([C@H]1CCCC[C@@H]1O)CC2
3: Cc1nc(-c2ccc(Cc3cc4c(nc3C)CN(C3CCOCC3)C4=O)cc2)co1
## Task Put the items in order so that reported pEC50 rises from first to last. // list labels; follow requested order
## Result 3, 2, 1

---

- TEST_METHOD_NOTES: Protein binding assay (HT dialysis), human liver microsomes
- Assay type: in vitro ADME
- CONDITION_INFO: pH 7.4, Human liver microsomes 0.5 mg/mL, Mean ± SEM, n = 3, read-out: Fu Microsomes (converted)
- Protocol: Unbound fractions of test compounds in plasma, brain homogenate and liver microsomes were determined using high-throughput dialysis (HT dialysis). Briefly, dialysis membranes were soaked in deionized water for 20 minutes and then in deionized water with 30% ethanol for 15 minutes and finally in phosphate buffer until use. Membranes were rinsed in phosphate buffer before assembling. The membranes were layered between teflon bars of dialysis assembly. […]
ENDPOINT_LABEL: fraction unbound at 6 h, 1 μM

COc1cccc(Cc2cc3c(nc2C)CN([C@H]2CCCC[C@@H]2O)C3=O)c1 ... 0.87

A: COc1ccc(Cc2cc3c(cc2C)CN([C@H]2CCCC[C@@H]2O)C3=O)cc1 [Comparative compound, reference compound]
B: COc1ccc(Cc2cc3c(nc2C)CN([C@H]2CCCC[C@@H]2O)C3=O)cc1
## Task // task: argmin of fraction unbound at 6 h, 1 μM over [ A , B ] Give the label under which the chosen entry appears.
## Result A
(A: 0.48, B: 0.938)

---

- TEST_METHOD_NOTES: Rodent pharmacokinetic study
- Format: in vivo, Male Wistar rats
- CONDITION_INFO: male, Wistar, plasma, iv; rat, i.v. 1 mg/kg
ENDPOINT_LABEL: AUC(0-t) (ng·h/mL)

P: COc1ccc(Cc2cc3c(nc2C)CN([C@H]2CCCC[C@@H]2O)C3=O)cc1
Q: Cc1nc2c(cc1Cc1ccc(F)cc1)C(=O)N([C@H]1CCCC[C@@H]1O)C2
R: COc1cccc(Cc2cc3c(nc2C)CN([C@H]2CCCC[C@@H]2O)C3=O)c1
## Task Arrange the 3 entries by AUC(0-t) so the values rise. Would you mind listing the labels in the order asked for?
## Result R, Q, P
(R: 662 ng·h/mL, Q: 1220 ng·h/mL, P: 1750 ng·h/mL)

---

- TEST_METHOD_NOTES: Rodent pharmacokinetic study
- Type: in vivo, Male Wistar rats
- CONDITION_INFO: male, Wistar, plasma; rat, oral 3 mg/kg
ENDPOINT_LABEL: AUC(0-t) (ng·h/mL)

Cc1nc2c(cc1Cc1ccc(F)cc1)C(=O)N([C@H]1CCCC[C@@H]1O)C2 [Example 9] ... 1290

P: COc1ccc(Cc2cc3c(nc2C)CN([C@H]2CCCC[C@@H]2O)C3=O)cc1 [Example 6]
Q: COc1cccc(Cc2cc3c(nc2C)CN([C@H]2CCCC[C@@H]2O)C3=O)c1 [Example 38]
## Task Field: lower recorded AUC(0-t) (choose P or Q ) Indicate which entry you chose by stating its label.
## Result Q
(Q: 1010 ng·h/mL, P: 3520 ng·h/mL)

---

- TEST_METHOD_NOTES: Protein binding assay (HT dialysis), rat liver microsomes
- Format: in vitro ADME
- CONDITION_INFO: pH 7.4, Rat liver microsomes 0.5 mg/mL, Mean ± SEM, n = 3, read-out: Fu Microsomes
ENDPOINT_LABEL: fraction unbound at 6 h, 1 μM

COc1ccc(Cc2cc3c(nc2C)CN([C@H]2CCCC[C@@H]2O)C3=O)cc1 [Example 6] ... 0.798

a: COc1cccc(Cc2cc3c(nc2C)CN([C@H]2CCCC[C@@H]2O)C3=O)c1 [Example 38]
b: COc1ccc(Cc2cc3c(cc2C)CN([C@H]2CCCC[C@@H]2O)C3=O)cc1 [Comparative compound, reference compound]
## Task Higher fraction unbound at 6 h, 1 μM: a or b ? Write down the label of the entry you select.
## Result a

---

- TEST_METHOD_NOTES: Protein binding assay (HT dialysis), rat plasma
- Format: in vitro ADME
- CONDITION_INFO: pH 7.4, Mean ± SEM, n = 3, read-out: Fu Plasma
ENDPOINT_LABEL: fraction unbound at 6 h, 1 μM

COc1ccc(Cc2cc3c(nc2C)CN([C@H]2CCCC[C@@H]2O)C3=O)cc1 ... 0.113

1: COc1cccc(Cc2cc3c(nc2C)CN([C@H]2CCCC[C@@H]2O)C3=O)c1
2: COc1ccc(Cc2cc3c(cc2C)CN([C@H]2CCCC[C@@H]2O)C3=O)cc1 [Comparative compound, reference compound]
## Task Pick one, 1 or 2 : lowest reported fraction unbound at 6 h, 1 μM. # answer = label of selected item
## Result 2
(2: 0.0141, 1: 0.103)

---

- TEST_METHOD_NOTES: Rodent brain penetration study
- Type: in vivo, Male Wistar rats
- CONDITION_INFO: male, Wistar, brain/plasma, po; rat, 3 mg/kg, p.o. @ 1.0 hr; read-out: Single dose Rat Brain Penetration (Cb/Cp)
ENDPOINT_LABEL: Kp at 1 h

COc1ccc(Cc2cc3c(nc2C)CN([C@H]2CCCC[C@@H]2O)C3=O)cc1 [Example 6] ... 0.35

I: COc1cccc(Cc2cc3c(nc2C)CN([C@H]2CCCC[C@@H]2O)C3=O)c1 [Example 38]
II: Cc1nc2c(cc1Cc1ccc(F)cc1)C(=O)N([C@H]1CCCC[C@@H]1O)C2 [Example 9]
## Task Which of these two has the smaller recorded Kp at 1 h: I or II ? Bench note: the answer is the label of the chosen record.
## Result II
(II: 0.25, I: 0.45)

---

- TEST_METHOD_NOTES: Rodent pharmacokinetic study
- Assay type: in vivo, Male Wistar rats
- CONDITION_INFO: male, Wistar, plasma, iv; rat, i.v. 1 mg/kg
ENDPOINT_LABEL: half-life (h)

Cc1nc2c(cc1Cc1ccc(F)cc1)C(=O)N([C@H]1CCCC[C@@H]1O)C2 ... 1.3

1: COc1ccc(Cc2cc3c(nc2C)CN([C@H]2CCCC[C@@H]2O)C3=O)cc1
2: COc1cccc(Cc2cc3c(nc2C)CN([C@H]2CCCC[C@@H]2O)C3=O)c1
## Task Smaller half-life value? Options are 1 and 2 Respond using the label that marks the chosen record.
## Result 2

---

- TEST_METHOD_NOTES: Protein binding assay (HT dialysis), dog plasma
- Type: in vitro ADME
- CONDITION_INFO: pH 7.4, Mean ± SEM, n = 3, read-out: Fu Plasma (converted)
ENDPOINT_LABEL: fraction unbound at 6 h, 1 μM

COc1ccc(Cc2cc3c(nc2C)CN([C@H]2CCCC[C@@H]2O)C3=O)cc1 ... 0.115

A: COc1cccc(Cc2cc3c(nc2C)CN([C@H]2CCCC[C@@H]2O)C3=O)c1
B: COc1ccc(Cc2cc3c(cc2C)CN([C@H]2CCCC[C@@H]2O)C3=O)cc1 [Comparative compound, reference compound]
## Task Out of A and B , name the one with the higher fraction unbound at 6 h, 1 μM. Lab log: write the label of the selected item as the result.
## Result A
